tested on: MDA-MB-436 (a BRCA-1-mutated breast cancer cell line); assay: Cell proliferation assay, three-day, CellTiter-Glo, MDA-MB-436; type: cell-based; settings: Homo sapiens, MDA-MB-436, MDA-MB-436, Conc. 100.00 uM, replicate 2; read-out: Inh % 2
readout: inhibition at 100 µM (%)
Number only, in %; omit the unit.

Consider the reported inhibition at 100 µM for these compounds:
| compound | subject of test | observed value |
| --- | --- | --- |
| NC(=O)c1cccc2[nH]c(C3CCN(CCC(=O)Nc4ccccc4)C3)nc12 (stereo not shown) | MDA-MB-436 (a BRCA-1-mutated breast cancer cell line) | 40 |
| NC(=O)c1cccc2[nH]c(C3CCN(CCCNc4ccccc4)C3)nc12 (stereo not shown) | MDA-MB-436 (a BRCA-1-mutated breast cancer cell line) | 37.2 |
| NC(=O)c1cccc2[nH]c(C3CCN(CCCNC(=O)c4ccccc4)C3)nc12 (stereo not shown) | MDA-MB-436 (a BRCA-1-mutated breast cancer cell line) | 20.8 |
| C[C@]1(c2nc3c(C(N)=O)cccc3[nH]2)CCCN1 [pc1, Veliparib, reference compound] | MDA-MB-436 (a BRCA-1-mutated breast cancer cell line) | 20.3 |
| NCCCN1CCC(c2nc3c(C(N)=O)cccc3[nH]2)C1 (stereo not shown) | MDA-MB-436 (a BRCA-1-mutated breast cancer cell line) | 2.1 |
| NCCN1CCC(c2nc3c(C(N)=O)cccc3[nH]2)C1 (stereo not shown) | MDA-MB-436 (a BRCA-1-mutated breast cancer cell line) | 7.9 |
| NC(=O)c1cccc2[nH]c(C3CCN(CCC(=O)c4ccc(Cl)cc4)C3)nc12 (stereo not shown) | MDA-MB-436 (a BRCA-1-mutated breast cancer cell line) | 98.9 |
| COc1ccc(C(=O)CCN2CCC(c3nc4c(C(N)=O)cccc4[nH]3)C2)cc1 (stereo not shown) | MDA-MB-436 (a BRCA-1-mutated breast cancer cell line) | 86.7 |
| NC(=O)c1cccc2[nH]c(C3CCN(CC(=O)c4ccccc4)C3)nc12 (stereo not shown) | MDA-MB-436 (a BRCA-1-mutated breast cancer cell line) | 66.2 |
| O=C(c1cc(Cc2n[nH]c(=O)c3ccccc23)ccc1F)N1CCN(C(=O)C2CC2)CC1 [pc2, Olaparib, reference compound] | MDA-MB-436 (a BRCA-1-mutated breast cancer cell line) | 90.9 |

query: Assign inhibition at 100 µM to the following record: NC(=O)c1cccc2[nH]c(C3CCN(CCC(=O)c4ccccc4)C3)nc12 (stereo not shown)
result: 99.4

query: Assign inhibition at 100 µM to the following record: NC(=O)c1cccc2[nH]c(C3CCN(CCN4C(=O)c5ccccc5C4=O)C3)nc12 (stereo not shown)
result: -13.6

query: Assign inhibition at 100 µM to the following record: NC(=O)c1cccc2[nH]c(C3CCN(CCNC(=O)c4ccccc4)C3)nc12 (stereo not shown)
result: 18.3

query: Assign inhibition at 100 µM to the following record: NC(=O)c1cccc2[nH]c(C3CCN(CCCN4C(=O)c5ccccc5C4=O)C3)nc12 (stereo not shown)
result: -9.4

query: Assign inhibition at 100 µM to the following record: NC(=O)c1cccc2[nH]c(C3CCN(CCCC(=O)c4ccccc4)C3)nc12 (stereo not shown)
result: 99.3

query: Assign inhibition at 100 µM to the following record: NC(=O)c1cccc2[nH]c(C3CCN(CC(O)c4ccccc4)C3)nc12 (stereo not shown)
result: 70.9
